# assayedSystem: αvβ6 (Homo sapiens (Human), UniProt P06756+P18564)
# Sequence (P06756 31-992): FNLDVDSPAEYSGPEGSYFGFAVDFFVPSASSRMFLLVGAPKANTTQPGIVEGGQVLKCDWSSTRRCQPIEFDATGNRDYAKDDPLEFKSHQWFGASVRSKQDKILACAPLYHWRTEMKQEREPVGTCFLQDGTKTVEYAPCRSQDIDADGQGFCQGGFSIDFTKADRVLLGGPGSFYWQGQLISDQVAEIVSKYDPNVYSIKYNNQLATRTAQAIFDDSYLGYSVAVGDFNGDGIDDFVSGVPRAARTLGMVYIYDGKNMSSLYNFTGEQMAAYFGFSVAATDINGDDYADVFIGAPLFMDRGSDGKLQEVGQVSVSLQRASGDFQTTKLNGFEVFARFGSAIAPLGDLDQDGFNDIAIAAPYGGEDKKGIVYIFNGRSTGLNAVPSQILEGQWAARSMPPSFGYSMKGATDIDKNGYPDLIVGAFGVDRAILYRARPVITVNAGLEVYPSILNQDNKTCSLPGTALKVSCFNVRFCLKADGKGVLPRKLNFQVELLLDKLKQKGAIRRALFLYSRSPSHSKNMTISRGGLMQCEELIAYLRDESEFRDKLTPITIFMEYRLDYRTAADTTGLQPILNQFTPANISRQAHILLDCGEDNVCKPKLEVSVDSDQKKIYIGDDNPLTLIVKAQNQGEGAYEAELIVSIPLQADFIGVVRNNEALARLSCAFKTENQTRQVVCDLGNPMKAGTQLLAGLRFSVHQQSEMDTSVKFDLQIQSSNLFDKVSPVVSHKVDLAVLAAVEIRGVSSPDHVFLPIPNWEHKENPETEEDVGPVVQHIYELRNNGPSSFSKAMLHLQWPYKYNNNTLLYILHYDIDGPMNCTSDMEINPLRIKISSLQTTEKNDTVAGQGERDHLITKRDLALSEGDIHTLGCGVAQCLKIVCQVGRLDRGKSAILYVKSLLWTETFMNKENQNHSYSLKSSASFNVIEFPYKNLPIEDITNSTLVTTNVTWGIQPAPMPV
# Sequence (P18564 22-707): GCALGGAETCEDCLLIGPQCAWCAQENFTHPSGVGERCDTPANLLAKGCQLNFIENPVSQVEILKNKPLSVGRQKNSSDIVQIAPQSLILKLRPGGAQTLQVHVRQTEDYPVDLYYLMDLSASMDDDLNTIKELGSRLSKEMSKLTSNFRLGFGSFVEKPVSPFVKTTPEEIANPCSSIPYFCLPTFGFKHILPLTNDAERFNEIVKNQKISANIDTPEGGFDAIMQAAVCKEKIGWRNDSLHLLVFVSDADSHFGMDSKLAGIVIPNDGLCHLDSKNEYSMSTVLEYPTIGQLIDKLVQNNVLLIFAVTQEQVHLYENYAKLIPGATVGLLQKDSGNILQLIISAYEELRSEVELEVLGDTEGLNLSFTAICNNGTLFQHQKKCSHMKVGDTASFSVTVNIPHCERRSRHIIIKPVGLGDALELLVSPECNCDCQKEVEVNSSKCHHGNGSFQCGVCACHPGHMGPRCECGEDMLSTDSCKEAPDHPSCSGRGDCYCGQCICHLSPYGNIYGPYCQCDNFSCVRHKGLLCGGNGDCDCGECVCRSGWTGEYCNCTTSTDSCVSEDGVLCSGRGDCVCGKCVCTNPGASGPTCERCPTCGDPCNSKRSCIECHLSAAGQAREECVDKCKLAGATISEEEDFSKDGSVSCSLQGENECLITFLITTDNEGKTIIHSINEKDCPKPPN
# assayMethodText: αVβ6–LAP-TGF β1 integrin binding assay (integrin-coupled beads, flow cytometry)
# protocolConditions: ratio of αvβ8 IC50 to αvβ6 IC50
The entries below are paired with their reported αvβ8/αvβ6.

Past entries and their recorded results:
O=C(O)C[C@@H](c1ccc(OC(F)F)nc1)N1CCN(CCCc2ccc3c(n2)NCCC3)C1=O
1.59
O=C(O)CC(CCCCCCc1ccc2c(n1)NCCC2)c1cnc(C(F)(F)F)nc1 (centres unmarked)
6.71
O=C(O)CC(CCCCCCc1ccc2c(n1)NCCC2)c1cc(Cl)cc(C(F)(F)F)c1 (centres unmarked)
2.02
O=C(O)CC(CCCCCCc1ccc2c(n1)NCCC2)c1cnc2ccc(F)cc2c1 (centres unmarked)
3.75
O=C(O)CC(CCCCCCc1ccc2c(n1)NCCC2)c1cccc(C(F)(F)F)c1 (single isomer, unassigned) [Compound A21-2]
10.93
O=C(O)CC(CCCCCCc1ccc2c(n1)NCCC2)c1cnc2cc(C(F)(F)F)ccc2c1 (centres unmarked)
6.93

**Q:** Fill in: αvβ8/αvβ6 of COc1ccc([C@H](CC(=O)O)N2CCN(CCCc3ccc4c(n3)NCCC4)C2=O)cn1 [Compound A30s] is ___
**A:** 1.83

**Q:** Fill in: αvβ8/αvβ6 of O=C(O)CC(CCCCCCc1ccc2c(n1)NCCC2)c1cnc2cc(F)ccc2c1 (centres unmarked) is ___
**A:** 6.41

**Q:** Fill in: αvβ8/αvβ6 of O=C(O)CC(CCCCCCc1ccc2c(n1)NCCC2)c1cccc(C(F)(F)F)c1 (centres unmarked) [Compound A21] is ___
**A:** 11.54

**Q:** Fill in: αvβ8/αvβ6 of O=C(O)CC(CCCCCCc1ccc2c(n1)NCCC2)c1ccc(OC(F)F)nc1 (centres unmarked) is ___
**A:** 4.37

**Q:** Fill in: αvβ8/αvβ6 of O=C(O)C[C@@H](c1cccc(C(F)(F)F)c1)N1CCN(CCCc2ccc3c(n2)NCCC3)C1=O [Compound A15s] is ___
**A:** 0.64

**Q:** Fill in: αvβ8/αvβ6 of O=C(O)CC(CCCCCCc1ccc2c(n1)NCCC2)c1ccc(Cl)c(C(F)(F)F)c1 (centres unmarked) is ___
**A:** 10.18

**Q:** Fill in: αvβ8/αvβ6 of O=C(O)CC(CCCCCCc1ccc2c(n1)NCCC2)c1cc(C(F)(F)F)ccc1F (centres unmarked) is ___
**A:** 2.04

**Q:** Fill in: αvβ8/αvβ6 of O=C(O)CC(CCCCCCc1ccc2c(n1)NCCC2)c1cnc2cc(F)c(F)cc2c1 (centres unmarked) is ___
**A:** 2.91

* * *

# assayedSystem: αvβ3 (Homo sapiens (Human), UniProt P05106+P06756)
# Sequence (P06756 31-992): as the sequence (P06756 31-992) above
# Sequence (P05106 27-718): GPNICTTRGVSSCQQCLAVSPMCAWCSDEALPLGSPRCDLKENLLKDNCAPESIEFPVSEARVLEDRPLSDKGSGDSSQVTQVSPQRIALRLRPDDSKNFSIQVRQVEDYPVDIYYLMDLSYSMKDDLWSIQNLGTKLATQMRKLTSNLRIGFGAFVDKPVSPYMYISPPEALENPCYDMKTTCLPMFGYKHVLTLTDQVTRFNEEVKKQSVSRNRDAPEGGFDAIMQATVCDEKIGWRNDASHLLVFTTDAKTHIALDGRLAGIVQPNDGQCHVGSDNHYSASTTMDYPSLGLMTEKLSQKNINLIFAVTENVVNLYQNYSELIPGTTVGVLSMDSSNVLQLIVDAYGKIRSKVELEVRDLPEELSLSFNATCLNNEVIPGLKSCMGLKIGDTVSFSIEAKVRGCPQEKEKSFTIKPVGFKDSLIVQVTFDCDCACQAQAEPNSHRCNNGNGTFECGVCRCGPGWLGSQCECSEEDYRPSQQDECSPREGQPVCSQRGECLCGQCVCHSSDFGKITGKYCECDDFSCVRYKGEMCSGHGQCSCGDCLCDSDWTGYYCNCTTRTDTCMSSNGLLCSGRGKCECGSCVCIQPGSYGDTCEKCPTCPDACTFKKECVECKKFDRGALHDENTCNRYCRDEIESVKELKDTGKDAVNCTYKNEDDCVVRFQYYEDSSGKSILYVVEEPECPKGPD
# assayMethodText: αVβ3–vitronectin integrin binding assay (integrin-coupled beads, flow cytometry)
# protocolConditions: ligand vitronectin
Strictly below 4 nM in IC50: yes (1). Otherwise: no (0).

Please review the following examples before continuing.
O=C(O)CC(CCCCCCc1ccc2c(n1)NCCC2)c1cnc(C(F)(F)F)nc1 (centres unmarked) [Compound A2]
no (0)
O=C(O)CC(CCCCCCc1ccc2c(n1)NCCC2)c1cnc2ccc(F)cc2c1 (centres unmarked) [Compound A4]
yes (1)
O=C(O)CC(CCCCCCc1ccc2c(n1)NCCC2)c1cnc2cc(F)ccc2c1 (centres unmarked) [Compound A5]
no (0)
O=C(O)CC(CCCCCCc1ccc2c(n1)NCCC2)c1ccc(OC(F)F)nc1 (centres unmarked) [Compound A3]
yes (1)

**Q:** Say whether its IC50 is strictly beneath 4 nM. Entry: O=C(O)CC(CCCCCCc1ccc2c(n1)NCCC2)c1ccc(Cl)c(C(F)(F)F)c1 (centres unmarked) [Compound A23]
**A:** no (0)
